Taken from paper PMC12142043.

# Tested on: SARS-CoV-2 (USA-WA1/2020) in Calu-3 cells
# Assay type: cell-based
# condition context: low dose (100 nM), Calu-3, 48 h
Param threshold (30000 AU) applies to dsRNA signal, AU Low; output 1 when value >= threshold, 0 when value < threshold.

                                   compound                         system_under_test  cat
0  Nc1cccc(S(=O)(=O)N2CCCN(S(=O)(=O)c3ccc4c(c3)OCCO4)CC2)c1  SARS-CoV-2 (USA-WA1/2020) in Calu-3 cells    0
1  CCOC(=O)c1cnc2ccc(-c3cncc(NS(=O)(=O)c4ccccc4)c3)cn12  SARS-CoV-2 (USA-WA1/2020) in Calu-3 cells    1
2  CCCCCCCCCCCC(=O)OC[C@H](CO)OC(=O)CCCCCCCCCCC  SARS-CoV-2 (USA-WA1/2020) in Calu-3 cells    1
3  Cc1cc(CN2CCN(c3c(Br)cnc4nc(-c5ccc(N6CCN(C)CC6)cc5)[nH]c34)CC2)no1  SARS-CoV-2 (USA-WA1/2020) in Calu-3 cells    1
4  CCn1c(-c2nonc2N)nc2c(C#CC(C)(C)O)ncc(OC[C@H]3CCCNC3)c21  SARS-CoV-2 (USA-WA1/2020) in Calu-3 cells    1
5  CCS(=O)(=O)N1CC(CC#N)(n2cc(-c3ncnc4[nH]ccc34)cn2)C1 [Baricitinib phosphate]  SARS-CoV-2 (USA-WA1/2020) in Calu-3 cells    1
